Target under test: Nitric oxide synthase, inducible (Homo sapiens, UniProt P35228)
Sequence (P35228 whole entry): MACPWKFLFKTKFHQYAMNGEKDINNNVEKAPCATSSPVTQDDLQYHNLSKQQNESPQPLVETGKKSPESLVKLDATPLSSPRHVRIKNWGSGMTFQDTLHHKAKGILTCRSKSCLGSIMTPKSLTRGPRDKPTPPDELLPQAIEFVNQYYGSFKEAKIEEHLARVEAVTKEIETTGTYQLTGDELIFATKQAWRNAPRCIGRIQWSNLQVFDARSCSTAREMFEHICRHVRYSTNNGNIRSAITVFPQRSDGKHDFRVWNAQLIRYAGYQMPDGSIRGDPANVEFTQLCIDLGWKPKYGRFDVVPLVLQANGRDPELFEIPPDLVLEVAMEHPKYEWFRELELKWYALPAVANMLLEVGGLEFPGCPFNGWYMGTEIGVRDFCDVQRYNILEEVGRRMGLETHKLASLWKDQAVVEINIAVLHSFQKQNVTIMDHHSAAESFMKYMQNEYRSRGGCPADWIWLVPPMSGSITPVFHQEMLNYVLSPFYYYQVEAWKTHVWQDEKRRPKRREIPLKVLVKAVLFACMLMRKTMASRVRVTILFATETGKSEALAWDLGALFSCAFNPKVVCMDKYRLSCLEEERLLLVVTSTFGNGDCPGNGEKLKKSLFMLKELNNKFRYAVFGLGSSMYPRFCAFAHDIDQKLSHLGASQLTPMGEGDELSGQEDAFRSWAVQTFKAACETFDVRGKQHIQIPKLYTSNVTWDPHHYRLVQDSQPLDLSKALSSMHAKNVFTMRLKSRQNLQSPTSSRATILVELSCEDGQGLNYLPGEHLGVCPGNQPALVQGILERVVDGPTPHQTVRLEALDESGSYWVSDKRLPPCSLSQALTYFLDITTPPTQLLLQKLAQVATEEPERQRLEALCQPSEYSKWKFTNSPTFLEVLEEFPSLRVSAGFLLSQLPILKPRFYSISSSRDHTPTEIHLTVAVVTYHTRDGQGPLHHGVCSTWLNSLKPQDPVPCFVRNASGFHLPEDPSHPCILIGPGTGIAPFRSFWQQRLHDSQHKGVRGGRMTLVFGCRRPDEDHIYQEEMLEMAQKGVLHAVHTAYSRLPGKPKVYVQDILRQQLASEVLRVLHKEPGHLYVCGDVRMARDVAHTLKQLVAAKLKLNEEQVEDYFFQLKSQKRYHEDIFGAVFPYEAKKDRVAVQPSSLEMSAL
Assay method text: Inhibition of N-terminal His-tagged human recombinant iNOS expressed in Escherichia coli assessed as reduction in L-[3H]-citrulline level using L-[3H]-arginine as substrate at 1 mM incubated for 30 mins by liquid scintillation method relative to control
Recorded metric: inhibition (%)

| Compound | Target under test | Quantitative readout |
| --- | --- | --- |
| N=C(NCCC(=O)c1ccccc1N)c1ccc(C(F)(F)F)cc1 | Nitric oxide synthase, inducible (Homo sapiens, UniProt P35228) | 68.6 |
| COc1ccc(N)c(C(=O)CCNC(=N)c2ccccc2)c1 | Nitric oxide synthase, inducible (Homo sapiens, UniProt P35228) | 94.7 |
| CC(=N)NCCC(O)c1ccccc1N (configuration not stated) | Nitric oxide synthase, inducible (Homo sapiens, UniProt P35228) | 16.2 |
| COc1ccc(N)c(C(O)CCNC(C)=N)c1 (configuration not stated) | Nitric oxide synthase, inducible (Homo sapiens, UniProt P35228) | 57.4 |
| N=C(NCCC(=O)c1ccccc1N)c1ccccc1 | Nitric oxide synthase, inducible (Homo sapiens, UniProt P35228) | 35.6 |
| N=C(NCCC(O)c1ccccc1N)c1ccccc1 (configuration not stated) | Nitric oxide synthase, inducible (Homo sapiens, UniProt P35228) | 64.1 |
| COc1ccc(N)c(C(=O)CCNC(=N)c2ccc(Cl)cc2)c1 | Nitric oxide synthase, inducible (Homo sapiens, UniProt P35228) | 75.1 |
| COc1ccc(N)c(C(=O)CCNC(C)=N)c1 | Nitric oxide synthase, inducible (Homo sapiens, UniProt P35228) | 97.6 |

1: COc1ccc(N)c(C(O)CCNC(=N)c2ccccc2)c1 (configuration not stated)
2: N=C(NCCC(O)c1ccccc1N)c1ccc(C(F)(F)F)cc1 (configuration not stated)
QUERY: // returns 1 or 2 , whichever has the lower inhibition Select an item and report its label.
RESULT: 2

====

Target under test: Nitric oxide synthase 1 (Homo sapiens, UniProt P29475)
Sequence (P29475 whole entry): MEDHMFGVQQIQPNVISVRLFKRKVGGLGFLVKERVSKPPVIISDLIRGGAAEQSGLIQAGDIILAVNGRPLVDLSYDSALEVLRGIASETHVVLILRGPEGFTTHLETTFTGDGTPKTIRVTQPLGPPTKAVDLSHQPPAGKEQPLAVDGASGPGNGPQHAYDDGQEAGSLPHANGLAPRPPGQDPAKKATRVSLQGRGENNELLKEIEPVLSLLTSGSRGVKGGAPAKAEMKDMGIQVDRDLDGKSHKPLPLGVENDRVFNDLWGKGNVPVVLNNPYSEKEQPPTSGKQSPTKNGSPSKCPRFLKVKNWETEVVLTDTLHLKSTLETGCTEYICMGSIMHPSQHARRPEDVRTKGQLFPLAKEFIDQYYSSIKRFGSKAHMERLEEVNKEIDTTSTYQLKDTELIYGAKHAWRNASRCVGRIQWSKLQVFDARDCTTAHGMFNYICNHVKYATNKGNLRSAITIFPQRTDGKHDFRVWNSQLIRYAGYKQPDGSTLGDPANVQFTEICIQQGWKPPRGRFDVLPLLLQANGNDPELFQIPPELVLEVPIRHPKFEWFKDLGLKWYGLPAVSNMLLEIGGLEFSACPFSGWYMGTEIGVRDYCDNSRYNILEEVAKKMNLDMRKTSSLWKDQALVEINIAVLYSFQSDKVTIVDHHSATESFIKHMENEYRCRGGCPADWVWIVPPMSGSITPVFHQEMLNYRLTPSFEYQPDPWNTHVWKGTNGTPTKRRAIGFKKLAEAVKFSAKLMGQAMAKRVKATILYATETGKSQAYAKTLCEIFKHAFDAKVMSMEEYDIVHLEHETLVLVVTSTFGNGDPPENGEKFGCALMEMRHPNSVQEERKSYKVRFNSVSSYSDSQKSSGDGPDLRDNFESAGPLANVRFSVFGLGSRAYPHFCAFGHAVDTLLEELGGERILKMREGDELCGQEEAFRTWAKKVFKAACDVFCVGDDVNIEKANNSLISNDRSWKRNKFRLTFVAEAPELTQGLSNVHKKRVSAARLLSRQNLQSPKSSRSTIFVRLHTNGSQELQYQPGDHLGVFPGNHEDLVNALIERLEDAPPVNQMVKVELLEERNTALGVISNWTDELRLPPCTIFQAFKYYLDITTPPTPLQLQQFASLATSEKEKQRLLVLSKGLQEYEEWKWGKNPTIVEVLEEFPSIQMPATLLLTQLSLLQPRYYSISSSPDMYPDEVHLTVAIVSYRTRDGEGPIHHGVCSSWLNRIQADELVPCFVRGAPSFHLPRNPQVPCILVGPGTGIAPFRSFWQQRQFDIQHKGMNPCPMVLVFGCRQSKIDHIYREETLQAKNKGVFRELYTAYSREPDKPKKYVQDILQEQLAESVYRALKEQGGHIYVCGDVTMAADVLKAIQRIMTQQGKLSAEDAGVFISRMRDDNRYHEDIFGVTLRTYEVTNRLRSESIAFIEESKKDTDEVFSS
Assay method text: Inhibition of human recombinant nNOS expressed in Escherichia coli assessed as reduction in L-[3H]-citrulline level using L-[3H]-arginine as substrate incubated for 30 min by scintillation counting
Recorded metric: IC50 (µM)

| Compound | Unit name | IC50 |
| --- | --- | --- |
| COc1ccc(N)c(C(=O)CCNC(C)=N)c1 | µM | 223 |

1: COc1ccc(N)c(C(=O)CCNC(=N)c2ccccc2)c1
2: CC(=N)NCCC(=O)c1ccccc1N
3: CNC(=S)NCCC(O)c1cc(OC)ccc1N (stereo not drawn)
QUERY: Please order the records by their reported IC50, lowest number first. Write the labels out in the order the request specifies.
RESULT: 3, 1, 2

====

Target under test: Nitric oxide synthase, inducible (Homo sapiens)
Assay method text: Inhibition of N-terminal His-tagged human recombinant iNOS expressed in Escherichia coli assessed as reduction in L-[3H]-citrulline level using L-[3H]-arginine as substrate incubated for 30 min by scintillation counting
pIC50: −log10 of the molar value.
Recorded metric: pIC50

Reference set (3 entries):
| Compound | Target under test | pIC50 |
| --- | --- | --- |
| COc1ccc(N)c(C(=O)CCNC(C)=N)c1 | Nitric oxide synthase, inducible (Homo sapiens) | 4.22 |
| COc1ccc(N)c(C(O)CCNC(=N)c2ccccc2)c1 (stereo not drawn) | Nitric oxide synthase, inducible (Homo sapiens) | 4.65 |
| CC(=N)NCCC(=O)c1cc(Cl)ccc1N | Nitric oxide synthase, inducible (Homo sapiens) | 4.59 |

A: COc1ccc(N)c(C(O)CCNC(=N)c2ccc(C(F)(F)F)cc2)c1 (stereo not drawn)
B: COc1ccc(N)c(C(=O)CCNC(=N)c2ccccc2)c1
C: CCNC(=O)NCCC(=O)c1cc(Cl)ccc1N
D: CNC(=S)NCCC(O)c1cc(OC)ccc1N (stereo not drawn)
QUERY: Please list these compounds in decreasing order of pIC50. Write the labels out in the order the request specifies.
RESULT: A, B, C, D
